Molecular target: T1, Recombinant TNFα containing an N-terminal 13-aa ybbR tag (human, UniProt P01375 77-233, biotin at the ybbR tag in the ELISA assays)
T1 construct: Expressed in E. coli; Same construct used unlabelled (FA) and biotinylated on NeutrAvidin (ELISA); also called tumor necrosis factor-alpha; human TNFα; not shown: N-terminal 13-aa ybbR tag
T1 sequence (P01375 77-233): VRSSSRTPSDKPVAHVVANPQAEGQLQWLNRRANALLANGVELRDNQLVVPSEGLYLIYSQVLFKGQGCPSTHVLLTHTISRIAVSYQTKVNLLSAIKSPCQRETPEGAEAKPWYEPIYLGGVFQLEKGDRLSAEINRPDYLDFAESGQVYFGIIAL
Experiment: FA, FITC-peptide + TNFα titration
Positions of bridges follow the written chain, without caps; N, C: chain ends. Non-standard residues stand in square brackets, D forms with d. Primed or numbered codes have the meaning given here. No end group written: not given here. *: point of attachment. FITC = O=C1OC2(c3ccc(O)cc3Oc3cc(O)ccc32)c2ccc(NC(=S)*)cc21; trimesoyl″ = benzene-1,3,5-tricarbonyl scaffold; FITC′ = fluorescein isothiocyanate, on Lys NZ; Phe(4-F) = N[C@@H](Cc1ccc(F)cc1)C(=O)O; Nle = CCCC[C@H](N)C(=O)O; Dap = NC[C@H](N)C(=O)O
Endpoint Label: Kd (nM)
Your answer is read as nM, so omit the unit and give the number.

# annotated cases, reported Kd shown
Binder	Data Value
[Nle]Y[dS]K[Phe(4-F)][dH]G[dK]H[Dap]K(FITC)-NH2 (linker N-4-10 via trimesoyl″) [C1-33]	760
[Nle][Phe(4-F)][dS]KY[dQ]G[dK]H[Dap]K(FITC)-NH2 (linker N-4-10 via trimesoyl″) [C1-37]	1300
[Nle][Phe(4-F)][dS]KY[dF]G[dK]H[Dap]K(FITC′)-NH2 (bridge (positions not given here) via trimesoyl″; not fully specified (N-terminus, bridges)) [C1-23]	1200
[Nle]Y[dS]KY[dQ]G[dK]H[Dap]K(FITC)-NH2 (linker N-4-10 via trimesoyl″) [C1-32]	1300

Q: For [Nle]Y[dS]KY[dF]G[dK]H[Dap]K(FITC′)-NH2 (bridge N-4-10 via trimesoyl″; not fully specified (N-terminus)) [C1-11] , write its Kd.
A: 1500
